- PROCEDURE TEXT: Rat pharmacokinetic test
- Type: in vivo
- REPORTED CONDITIONS: male, plasma, po, 20 mg/kg, gavage
RESULT TYPE: Cmax (ng/mL)
Report the figure in ng/mL without appending any unit label.

Read the entry CCOc1cc2c(cc1OC)CCN(C=O)[C@H]2CCc1c[nH]c2cc(C)ccc12 [(S)-C7] and write its reported Cmax.
2380

###

- Tested on: TNF-α secretion in PBMC
- PROCEDURE TEXT: Inhibition of LPS-stimulated TNF-α secretion in PBMC (ELISA)
- Type: cell-based
- REPORTED CONDITIONS: Homo sapiens; TNF-α secretion in PBMC, 10 μM; read-out: Inhibition rate %
RESULT TYPE: inhibition at 10 µM (%)
Your answer should be a plain number; it is taken to be in %.

>>> print(df.to_string())
                                   compound  unit_tag  quantitative_result
0  COCCN1CCc2cc(OC)c(OC)cc2C1CCc1c[nH]c2ccccc12 (centres unmarked)         %                 25.7

State its inhibition at 10 µM: COc1cc2c(cc1OC)C(CCc1c[nH]c3ccccc13)N(C(=O)C1CCOCC1)CC2 (centres unmarked)
60.2

Please list inhibition at 10 µM recorded for the compound COc1cc2c(cc1OC)C(CCc1c[nH]c3ccccc13)N(C(=O)c1ccncc1)CC2 (centres unmarked)
58.5

###

Vd listing for selected molecules.
- PROCEDURE TEXT: Rat pharmacokinetic test
- Format: in vivo
- REPORTED CONDITIONS: male, plasma, intravenous injection, 10 mg/kg, read-out: Vss
Give the quantity in L/kg, number only.

In [3]: df
Out[3]:
                                   molecule  result_type  quantitative_result
0  CCOc1cc2c(cc1OC)CCN(C=O)[C@H]2CCc1c[nH]c2ccc(OC)cc12 [(S)-C8]           Vd                  2.1

Okay, now this molecule:
Entry CCOc1cc2c(cc1OC)CCN(C=O)[C@H]2CCc1c[nH]c2cc(C)ccc12 [(S)-C7] needs its Vd filled in; supply it.
0.53

###

inhibition at 1 µM values for the compounds below.
- TARGET ENTITY: Human PDE4D catalytic domain (Homo sapiens (Human))
- PROCEDURE TEXT: Scintillation Proximity Assay (SPA), inhibition of PDE4D catalytic domain activity
- Type: biochemical
- REPORTED CONDITIONS: Compound concentration: 1 μM; read-out: PDE4D enzyme activity inhibition rate %
Enter your answer as a number in %; do not include the unit.

>>> df
                                   compound  unit_tag  quantitative_result
0  COc1cc2c(cc1OC)C(CCc1c[nH]c3ccccc13)N(CCS(C)(=O)=O)CC2 (centres unmarked) [Compound B8]         %                 68.5

Give the reported inhibition at 1 µM for this compound. CCOc1cc2c(cc1OC)CCN(C=O)[C@H]2CCc1c[nH]c2ccc(C#N)cc12 [(S)-C65]
68.7

Quickly give me recorded inhibition at 1 µM for CCOc1cc2c(cc1OC)CCN(S(=O)(=O)c1ccc(OC)cc1)[C@H]2CCc1c[nH]c2ccc(OC)cc12 [(S)-C60]
42

Find the measured inhibition at 1 µM of COc1cc2c(cc1OCc1ccccc1)C(CCc1c[nH]c3ccccc13)N(C=O)CC2 (centres unmarked) [Compound A5] and report it.
10.8

Given the compound CCOc1cc2c(cc1OC)CCN(S(=O)(=O)c1ccccc1)[C@H]2CCc1c[nH]c2ccc(OC)cc12 [(S)-C47] , write its reported inhibition at 1 µM.
49.4

Hello, please tell me recorded inhibition at 1 µM for this one: COc1cc2c(cc1OC)[C@H](CCc1c[nH]c3ccccc13)N(C(=O)C(F)(F)F)CC2 [(S)-B10]
29.5

Indicate the recorded inhibition at 1 µM value for this compound: COCCN1CCc2cc(OC)c(OC)cc2C1CCc1c[nH]c2ccccc12 (centres unmarked) [Compound B2]
19.2

Entry CCOc1cc2c(cc1OC)CCN(S(=O)(=O)C1CCCCC1)[C@H]2CCc1c[nH]c2ccc(OC)cc12 [(S)-C49] needs its inhibition at 1 µM filled in; supply it.
70.8

###

- TARGET ENTITY: Human PDE4D catalytic domain (Homo sapiens (Human), UniProt Q08499)
- Sequence (Q08499 386-715): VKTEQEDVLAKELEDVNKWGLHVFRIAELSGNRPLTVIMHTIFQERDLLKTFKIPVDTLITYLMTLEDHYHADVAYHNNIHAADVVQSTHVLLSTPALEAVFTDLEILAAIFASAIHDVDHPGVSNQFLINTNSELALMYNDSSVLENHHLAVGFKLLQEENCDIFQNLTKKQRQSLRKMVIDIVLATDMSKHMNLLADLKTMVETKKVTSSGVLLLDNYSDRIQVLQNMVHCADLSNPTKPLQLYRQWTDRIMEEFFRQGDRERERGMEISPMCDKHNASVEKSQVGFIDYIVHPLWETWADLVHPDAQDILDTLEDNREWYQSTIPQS
- PROCEDURE TEXT: Scintillation Proximity Assay (SPA), inhibition of PDE4D catalytic domain activity
- Assay type: biochemical
- REPORTED CONDITIONS: read-out: IC50 value of PDE4 inhibitory activity
RESULT TYPE: IC50

Indicate the recorded IC50 value for this molecule: CCOc1cc2c(cc1OC)CCN(C=O)[C@H]2CCc1c[nH]c2ccc(OC)cc12 [(S)-C8]
< 100 nM

###

- PROCEDURE TEXT: Beagle dog pharmacokinetic test
- Type: in vivo
- REPORTED CONDITIONS: male, plasma, intravenous injection, 3 mg/kg, read-out: Vss
RESULT TYPE: Vd (L/kg)
Field format: number, assumed L/kg, no unit text.

Answer with reported Vd of CCOc1cc2c(cc1OC)CCN(C=O)[C@H]2CCc1c[nH]c2ccc(OC)cc12 [(S)-C8]
0.96

###

- PROCEDURE TEXT: Beagle dog pharmacokinetic test
- Type: in vivo
- REPORTED CONDITIONS: male, plasma, po, gavage, 10 mg/kg, read-out: AUC0-t
RESULT TYPE: AUC0-t (ng·h/mL)
API: value field is a number in ng·h/mL; no unit string.

Report AUC0-t for CCOc1cc2c(cc1OC)CCN(C=O)[C@H]2CCc1c[nH]c2ccc(OC)cc12 [(S)-C8]
16600

###

- TARGET ENTITY: Human PDE4D catalytic domain (Homo sapiens (Human), UniProt Q08499)
- PROCEDURE TEXT: Scintillation Proximity Assay (SPA), inhibition of PDE4D catalytic domain activity
- Type: biochemical
- REPORTED CONDITIONS: PDE4D; unit given as mM; read-out: IC50
RESULT TYPE: log10(IC50) (log10 of the value in nM)
Parameter value (number): base-10 log of IC50 in nM.

Consider the reported log10(IC50) for these compounds:
                                   compound  result_type  quantitative_result
0  COc1cc2c(cc1OC)C(CCc1c[nH]c3ccccc13)N(CCS(C)(=O)=O)CC2 (stereo not drawn)  log10(IC50)                 2.76
1  COc1cc2c(cc1OC1CCCC1)C(CCc1c[nH]c3ccccc13)N(C=O)CC2 (stereo not drawn)  log10(IC50)                 3.48
2  COCC(=O)N1CCc2cc(OC)c(OC)cc2C1CCc1c[nH]c2ccccc12 (stereo not drawn)  log10(IC50)                 2.48
3  CCOc1cc2c(cc1OC)CCN(C(=O)COC)[C@H]2CCc1c[nH]c2ccccc12 [(S)-B12]  log10(IC50)                 2.40
4  CCOc1cc2c(cc1OC)CCN(C=O)[C@H]2CCc1c[nH]c2ccc(OC)cc12 [(S)-C8]  log10(IC50)                 1.90

// next item, log10(IC50) requested
Report log10(IC50), nothing else, for this compound: COCC(=O)N1CCc2cc(OC)c(OC)cc2[C@@H]1CCc1c[nH]c2ccccc12 [(S)-B11]
2.28

###

- PROCEDURE TEXT: Beagle dog pharmacokinetic test
- Type: in vivo
- REPORTED CONDITIONS: male, plasma, intravenous injection, 3 mg/kg
RESULT TYPE: AUC(0-inf) (ng·h/mL)
Express your answer in ng·h/mL, writing the number without its unit.

Supply reported AUC(0-inf) belonging to this compound: CCOc1cc2c(cc1OC)CCN(C=O)[C@H]2CCc1c[nH]c2ccc(OC)cc12 [(S)-C8]
9800

###

- PROCEDURE TEXT: Rat pharmacokinetic test
- Type: in vivo
- REPORTED CONDITIONS: male, plasma, iv, 10 mg/kg, intravenous injection, 10 mg/kg, read-out: AUC0-t
Let's look at some compounds and their measured AUC0-t.
Write the number in ng·h/mL without appending the unit.

                                   compound  quantitative_result
0  CCOc1cc2c(cc1OC)CCN(C=O)[C@H]2CCc1c[nH]c2ccc(OC)cc12 [(S)-C8]                 2640

Please examine the following record next.
Please give measured AUC0-t of the following entry: CCOc1cc2c(cc1OC)CCN(C=O)[C@H]2CCc1c[nH]c2cc(C)ccc12 [(S)-C7]
6760

FYI, the data here is from patent US12145923B2.
